biological target: CD73 on U138 neuroglioma cells (Homo sapiens, UniProt P21589); construct: U138 neuroglioma cells, which express CD73 on their surface; endogenous in cells; host or cells: U138 neuroglioma cells (ATCC); assay: Inhibition of Ecto-5′-Nucleotidase Activity in U138 Neuroglioma Cells (Assay 2); format: cell-based; conditions: 50 μM CMP, 2 hr at 37° C., malachite green readout, read-out: Assay 2: IC50, inhibition of ecto-5′-nucleotidase activity in U138 neuroglioma cells
pIC50: −log10 of the molar value.
OBSERVABLE: pIC50

CCOC(=O)C(OC[C@H]1C[C@@H](n2nnc3c(NC[C@H]4CCOC4)nc(Cl)nc32)[C@H](O)[C@@H]1O)P(=O)(O)O (stereo partly drawn)	> 7.00
CCOC(=O)[C@H](OC[C@H]1O[C@@H](n2cnc3c(N)nc([C@H]4NCCO4)nc32)[C@H](O)[C@@H]1O)P(=O)(O)O (single isomer, unassigned) [Example 51a]	< 6.00
CC(C)CNC(=O)[C@H](OC[C@H]1O[C@@H](n2cnc3c(N)nc(Cl)nc32)[C@H](O)[C@@H]1O)P(=O)(O)O (single isomer, unassigned)	> 7.00
COCC(OC[C@H]1O[C@@H](n2cnc3c(N)nc(Cl)nc32)[C@H](O)[C@@H]1O)(C(=O)O)C(=O)O	> 7.00
O=C(O)C(OC[C@H]1O[C@@H](n2cnc3c(Cl)nc(Cl)nc32)[C@H](O)[C@@H]1O)P(=O)(O)O (stereo partly drawn)	6.00 to 7.00

Lab note: next compound to report on.
Q. Could you share which pIC50 value was measured for COc1nc(OC)c2ncn([C@@H]3O[C@H](COC(C(=O)OC(C)(C)C)P(=O)(O)O)[C@@H](O)[C@H]3O)c2n1 (stereo partly drawn) ?
A. 6.00 to 7.00

====

Biological target: CD73 on U138 neuroglioma cells (Homo sapiens)
Construct: U138 neuroglioma cells, which express CD73 on their surface; endogenous in cells; host or cells: U138 neuroglioma cells (ATCC)
Sequence (P21589 27-549): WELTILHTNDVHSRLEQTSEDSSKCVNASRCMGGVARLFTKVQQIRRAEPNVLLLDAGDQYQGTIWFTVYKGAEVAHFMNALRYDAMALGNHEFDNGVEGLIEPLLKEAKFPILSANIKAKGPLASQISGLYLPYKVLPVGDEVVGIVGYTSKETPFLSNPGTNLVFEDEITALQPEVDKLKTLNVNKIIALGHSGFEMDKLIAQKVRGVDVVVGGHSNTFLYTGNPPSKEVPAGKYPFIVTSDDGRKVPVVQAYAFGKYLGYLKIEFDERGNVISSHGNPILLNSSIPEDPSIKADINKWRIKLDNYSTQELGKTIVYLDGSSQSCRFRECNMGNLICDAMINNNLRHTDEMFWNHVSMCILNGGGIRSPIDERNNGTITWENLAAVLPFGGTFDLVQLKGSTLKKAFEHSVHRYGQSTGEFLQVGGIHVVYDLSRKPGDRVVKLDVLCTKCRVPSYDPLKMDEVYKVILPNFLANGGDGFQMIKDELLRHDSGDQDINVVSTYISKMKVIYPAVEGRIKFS
Assay: Inhibition of Ecto-5′-Nucleotidase Activity in U138 Neuroglioma Cells (Assay 2)
Type: cell-based
Conditions: 50 μM CMP, 2 hr at 37° C., malachite green readout, read-out: Assay 2: IC50, inhibition of ecto-5′-nucleotidase activity in U138 neuroglioma cells
Form field: IC50 (one value per entry).

Example entries begin here.
Cc1nc(N)c2ncn([C@@H]3O[C@H](COC(C(=O)O)P(=O)(O)O)[C@@H](O)[C@H]3O)c2n1 (single isomer, unassigned) [Example 69a]	> 1000 nM
CCOC(=O)[C@H](OC[C@H]1O[C@@H](n2cnc3c(N)nc(Cc4ccccc4)nc32)[C@H](O)[C@@H]1O)P(=O)(O)O (single isomer, unassigned) [Example 39]	100 to 1000 nM

Q. What does the data say about its IC50? Entry: CCCS(=O)(=O)[C@H](OC[C@H]1O[C@@H](n2cnc3c(N)nc(Cl)nc32)[C@H](O)[C@@H]1O)P(=O)(O)O (single isomer, unassigned) [Example 12]
A. 100 to 1000 nM
